target: TFPI (Homo sapiens, UniProt P10646); assay: Extrinsic Tenase Inhibition assay | % Inhibition @ 2.5µM
measurement type: Extrinsic Tenase Inhibition assay | % Inhibition @ […] (%)

In [3]: df
Out[3]:
                                  substance                        system_tested  display_unit  data_value
0  Ac-SGYASFPLAVQLHVAKRSKEMALARLYYKTS-NH2 (SEQ ID NO: 2008) [JBT0674]  TFPI (Homo sapiens, UniProt P10646)             %           5
1  Ac-SGYASFPLAVQLHVSKRSKEMALARAYYKTS-NH2 (SEQ ID NO: 2021) [JBT0685]  TFPI (Homo sapiens, UniProt P10646)             %           1
2  Ac-SGYASFPLAVQLHVSKRAKEMALARLYYKTS-NH2 (SEQ ID NO: 2009) [JBT0677]  TFPI (Homo sapiens, UniProt P10646)             %           2
3  Ac-SGYASFPLAVQLHVSARSKEMALARLYYKTS-NH2 (SEQ ID NO: 2136) [JBT0675]  TFPI (Homo sapiens, UniProt P10646)             %           7
4  Ac-SGYASFPLAVQLHVSKRSKEMALARLAYKTS-NH2 (SEQ ID NO: 2140) [JBT0686]  TFPI (Homo sapiens, UniProt P10646)             %           1
5  Ac-SGYASFPLAVQLHVSKASKEMALARLYYKTS-NH2 (SEQ ID NO: 2137) [JBT0676]  TFPI (Homo sapiens, UniProt P10646)             %           1
